List of pIC50 values.
target: Sphingosine 1-phosphate receptor 1 (Homo sapiens)
Sequence (P21453 whole entry): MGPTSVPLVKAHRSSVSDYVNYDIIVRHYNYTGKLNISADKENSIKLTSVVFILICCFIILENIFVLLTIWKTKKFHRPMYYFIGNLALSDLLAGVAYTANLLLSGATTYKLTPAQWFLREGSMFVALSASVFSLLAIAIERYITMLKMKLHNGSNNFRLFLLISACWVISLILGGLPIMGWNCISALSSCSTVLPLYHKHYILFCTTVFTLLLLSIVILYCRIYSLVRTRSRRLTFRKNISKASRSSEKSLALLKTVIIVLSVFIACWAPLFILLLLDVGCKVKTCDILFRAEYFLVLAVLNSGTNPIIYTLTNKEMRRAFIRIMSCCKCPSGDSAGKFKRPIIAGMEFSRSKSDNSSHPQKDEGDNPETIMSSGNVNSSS
pIC50: −log10 of the molar value.
Result Type: pIC50

molecule=CCCCCCCCOc1ccc(-c2c[nH]c([C@@](C)(N)COP(=O)(O)O)n2)cc1F test_target="Sphingosine 1-phosphate receptor 1 (Homo sapiens)" measured=9.46
molecule=CCCCCCCCCCCCC/C=C/[C@@H](O)[C@@H](N)COP(=O)(O)O test_target="Sphingosine 1-phosphate receptor 1 (Homo sapiens)" measured=9.33
molecule=CCCCCCCCOc1ccc(NC(=O)[C@@](C)(N)COP(=O)(O)O)cc1F test_target="Sphingosine 1-phosphate receptor 1 (Homo sapiens)" measured=9.85
